system: MCF7; test: Growth inhibition of human MCF7 cells at 10 uM after 24 hrs by SRB assay; type: functional; details: MCF7, 24 h, read-out: GI
Entry flag: criterion met if inhibition of growth at 10 µM reaches 30%; criterion not met if it does not.

[
  {
    "Compound": "COc1ccc(NC(=O)C2=C(C)NC(=O)NC2c2cn(-c3ccccc3)nc2-c2ccc(Cl)cc2)cc1 (configuration not stated)",
    "Measurement Target": "MCF7",
    "Class Name": "criterion not met"
  },
  {
    "Compound": "CCOC(=O)C1=C(C)NC(=S)NC1c1cn(-c2ccccc2)nc1-c1ccc(Cl)cc1 (configuration not stated)",
    "Measurement Target": "MCF7",
    "Class Name": "criterion met"
  },
  {
    "Compound": "CC1=C(C(=O)Nc2ccc(C)cc2)C(c2cn(-c3ccccc3)nc2-c2ccccc2)NC(=O)N1 (configuration not stated)",
    "Measurement Target": "MCF7",
    "Class Name": "criterion not met"
  },
  {
    "Compound": "CC1=C(C(=O)Nc2ccccc2Cl)C(c2cn(-c3ccccc3)nc2-c2ccccc2)NC(=S)N1 (configuration not stated)",
    "Measurement Target": "MCF7",
    "Class Name": "criterion not met"
  },
  {
    "Compound": "CC1=C(C(=O)Nc2ccc(C)cc2)C(c2cn(-c3ccccc3)nc2-c2ccc(Cl)cc2)NC(=O)N1 (configuration not stated)",
    "Measurement Target": "MCF7",
    "Class Name": "criterion not met"
  },
  {
    "Compound": "CC1=C(C(=O)Nc2ccccc2)C(c2cn(-c3ccccc3)nc2-c2ccccc2)NC(=S)N1 (configuration not stated)",
    "Measurement Target": "MCF7",
    "Class Name": "criterion not met"
  },
  {
    "Compound": "CC1=C(C(=O)Nc2ccc([N+](=O)[O-])cc2)C(c2cn(-c3ccccc3)nc2-c2ccccc2)NC(=S)N1 (configuration not stated)",
    "Measurement Target": "MCF7",
    "Class Name": "criterion met"
  },
  {
    "Compound": "CC1=C(C(=O)Nc2ccc([N+](=O)[O-])cc2)C(c2cn(-c3ccccc3)nc2-c2ccccc2)NC(=O)N1 (configuration not stated)",
    "Measurement Target": "MCF7",
    "Class Name": "criterion not met"
  },
  {
    "Compound": "CC1=C(C(=O)Nc2ccc(Cl)cc2)C(c2cn(-c3ccccc3)nc2-c2ccccc2)NC(=S)N1 (configuration not stated)",
    "Measurement Target": "MCF7",
    "Class Name": "criterion met"
  },
  {
    "Compound": "CC1=C(C(=O)Nc2ccccc2)C(c2cn(-c3ccccc3)nc2-c2ccccc2)NC(=O)N1 (configuration not stated)",
    "Measurement Target": "MCF7",
    "Class Name": "criterion not met"
  },
  {
    "Compound": "CC1=C(C(=O)Nc2ccccc2Cl)C(c2cn(-c3ccccc3)nc2-c2ccccc2)NC(=O)N1 (configuration not stated)",
    "Measurement Target": "MCF7",
    "Class Name": "criterion not met"
  },
  {
    "Compound": "CC1=C(C(=O)Nc2ccc(C)cc2)C(c2cn(-c3ccccc3)nc2-c2ccccc2)NC(=S)N1 (configuration not stated)",
    "Measurement Target": "MCF7",
    "Class Name": "criterion not met"
  }
]

###

Each record here notes measured GI50.
test system: MCF7; experiment: Growth inhibition of human MCF7 cells after 24 hrs by SRB assay; format: functional; conditions: MCF7, 24 h

[
  {
    "Compound": "CC1=C(C(=O)Nc2ccccc2)C(c2cn(-c3ccccc3)nc2-c2ccc(Cl)cc2)NC(=S)N1 (configuration not stated)",
    "Scale Unit": "µM",
    "GI50": 61.5
  },
  {
    "Compound": "CC1=C(C(=O)Nc2ccc([N+](=O)[O-])cc2)C(c2cn(-c3ccccc3)nc2-c2ccccc2)NC(=S)N1 (configuration not stated)",
    "Scale Unit": "µM",
    "GI50": 41.4
  },
  {
    "Compound": "CCOC(=O)C1=C(C)NC(=S)NC1c1cn(-c2ccccc2)nc1-c1ccc(Cl)cc1 (configuration not stated)",
    "Scale Unit": "µM",
    "GI50": 33.2
  },
  {
    "Compound": "CC1=C(C(=O)Nc2ccccc2)C(c2cn(-c3ccccc3)nc2-c2ccccc2)NC(=O)N1 (configuration not stated)",
    "Scale Unit": "µM",
    "GI50": 80.6
  },
  {
    "Compound": "CC1=C(C(=O)Nc2ccc(C)cc2)C(c2cn(-c3ccccc3)nc2-c2ccc(Cl)cc2)NC(=S)N1 (configuration not stated)",
    "Scale Unit": "µM",
    "GI50": 43.5
  },
  {
    "Compound": "CCOC(=O)C1=C(C)NC(=O)NC1c1cn(-c2ccccc2)nc1-c1ccccc1 (configuration not stated)",
    "Scale Unit": "µM",
    "GI50": 60.8
  },
  {
    "Compound": "CC1=C(C(=O)Nc2ccc(C)cc2)C(c2cn(-c3ccccc3)nc2-c2ccccc2)NC(=O)N1 (configuration not stated)",
    "Scale Unit": "µM",
    "GI50": 71.7
  },
  {
    "Compound": "CC1=C(C(=O)Nc2ccccc2)C(c2cn(-c3ccccc3)nc2-c2ccccc2)NC(=S)N1 (configuration not stated)",
    "Scale Unit": "µM",
    "GI50": 88.2
  },
  {
    "Compound": "CCOC(=O)C1=C(C)NC(=O)NC1c1cn(-c2ccccc2)nc1-c1ccc(Cl)cc1 (configuration not stated)",
    "Scale Unit": "µM",
    "GI50": 68.8
  },
  {
    "Compound": "CC1=C(C(=O)Nc2ccccc2Cl)C(c2cn(-c3ccccc3)nc2-c2ccccc2)NC(=O)N1 (configuration not stated)",
    "Scale Unit": "µM",
    "GI50": 66.6
  },
  {
    "Compound": "CC1=C(C(=O)Nc2ccc(C)cc2)C(c2cn(-c3ccccc3)nc2-c2ccc(Cl)cc2)NC(=O)N1 (configuration not stated)",
    "Scale Unit": "µM",
    "GI50": 69.7
  },
  {
    "Compound": "CC1=C(C(=O)Nc2ccc([N+](=O)[O-])cc2)C(c2cn(-c3ccccc3)nc2-c2ccccc2)NC(=O)N1 (configuration not stated)",
    "Scale Unit": "µM",
    "GI50": 35.5
  }
]

###

test system: MCF7; assay: Growth inhibition of human MCF7 cells after 24 hrs by SRB assay; assay type: functional; conditions: MCF7, 24 h
Each record here notes measured GI50.

[
  {
    "Compound": "CC1=C(C(=O)Nc2ccc(C)cc2)C(c2cn(-c3ccccc3)nc2-c2ccccc2)NC(=S)N1 (centres undefined)",
    "GI50": "56.1 µM"
  },
  {
    "Compound": "COc1ccc(NC(=O)C2=C(C)NC(=S)NC2c2cn(-c3ccccc3)nc2-c2ccc(Cl)cc2)cc1 (centres undefined)",
    "GI50": "70 µM"
  },
  {
    "Compound": "CC1=C(C(=O)Nc2ccccc2)C(c2cn(-c3ccccc3)nc2-c2ccc(Cl)cc2)NC(=O)N1 (centres undefined)",
    "GI50": "65.5 µM"
  },
  {
    "Compound": "COc1ccc(NC(=O)C2=C(C)NC(=S)NC2c2cn(-c3ccccc3)nc2-c2ccccc2)cc1 (centres undefined)",
    "GI50": "77.3 µM"
  }
]

###

system: MCF7; test: Growth inhibition of human MCF7 cells after 24 hrs by SRB assay; assay type: functional; settings: MCF7, 24 h

[
  {
    "Compound": "CC1=C(C(=O)Nc2ccc(Cl)cc2)C(c2cn(-c3ccccc3)nc2-c2ccccc2)NC(=S)N1 (stereo not given)",
    "Scale Unit": "µM",
    "GI50": 34.7
  },
  {
    "Compound": "CCOC(=O)C1=C(C)NC(=S)NC1c1cn(-c2ccccc2)nc1-c1ccccc1 (stereo not given)",
    "Scale Unit": "µM",
    "GI50": 42
  },
  {
    "Compound": "COc1ccc(NC(=O)C2=C(C)NC(=O)NC2c2cn(-c3ccccc3)nc2-c2ccc(Cl)cc2)cc1 (stereo not given)",
    "Scale Unit": "µM",
    "GI50": 69.7
  },
  {
    "Compound": "CC1=C(C(=O)Nc2ccccc2Cl)C(c2cn(-c3ccccc3)nc2-c2ccccc2)NC(=S)N1 (stereo not given)",
    "Scale Unit": "µM",
    "GI50": 68.8
  },
  {
    "Compound": "CC1=C(C(=O)Nc2ccc(Cl)cc2)C(c2cn(-c3ccccc3)nc2-c2ccc(Cl)cc2)NC(=O)N1 (stereo not given)",
    "Scale Unit": "µM",
    "GI50": 56.9
  }
]
